- TARGET: HLA-A0201 (human)
- ASSAY PROCEDURE: competition vs labelled reference peptide
REPORTED ENDPOINT: Ki (nM)
State just the number; it will be interpreted in nM.

stdin: Would you mind telling me what Ki value was observed for SMVGNWAKV (modifications not checked) ?
stdout: 158

stdin: Would you mind telling me what Ki value was observed for RLYIGGPLT (modifications not checked) ?
stdout: 845

stdin: Would you mind telling me what Ki value was observed for FLLALLSCLT (modifications not checked) ?
stdout: 132

stdin: Would you mind telling me what Ki value was observed for KVLVLNPSV (modifications not checked) ?
stdout: 50

stdin: Would you mind telling me what Ki value was observed for AQPGYPWPL (modifications not checked) ?
stdout: 382

stdin: Would you mind telling me what Ki value was observed for YLFNWAVRT (modifications not checked) ?
stdout: 29

stdin: Would you mind telling me what Ki value was observed for QIVGGVYLL (modifications not checked) ?
stdout: 228
